# study system: Isocitrate dehydrogenase [NADP] cytoplasmic (Homo sapiens) (UniProt O75874)
# Sequence (O75874 whole entry R132H): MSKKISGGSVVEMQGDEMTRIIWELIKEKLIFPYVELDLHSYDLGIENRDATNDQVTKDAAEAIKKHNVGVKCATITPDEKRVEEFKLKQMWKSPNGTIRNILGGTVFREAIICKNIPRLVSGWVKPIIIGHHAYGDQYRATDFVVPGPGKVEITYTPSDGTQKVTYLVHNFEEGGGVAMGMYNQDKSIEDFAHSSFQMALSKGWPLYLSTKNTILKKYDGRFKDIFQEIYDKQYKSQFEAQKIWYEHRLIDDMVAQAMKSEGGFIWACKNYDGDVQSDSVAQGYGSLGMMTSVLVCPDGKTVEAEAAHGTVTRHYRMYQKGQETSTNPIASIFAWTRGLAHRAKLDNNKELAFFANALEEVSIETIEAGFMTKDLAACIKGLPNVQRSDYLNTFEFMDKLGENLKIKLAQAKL
# test protocol: PubChem AID 624101;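 further: 0% = DMSO and 100% = no enzyme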
# condition summary: IDH1 R132H reductase, diaphorase/resazurin fluorescence, 60 min; at 10 µM; hits give high values
The whole screen tested about 70,000 compounds, of which about 120 (0.17%) were called active. The sample as a whole holds a higher share of actives than the screen did.
property name: inhibition (%)
State just the number; it will be interpreted in %.

Identify the reported inhibition for the following entry. C/C=C/c1cnc2c(c1)C(=O)N([C@H](C)CO)C[C@H](C)[C@H](CN(C)C(=O)c1cccc(F)c1)O2
0.473

Identify the reported inhibition for the following entry. CN(C)C(=O)C[C@@H]1CC[C@@H](NS(=O)(=O)c2ccccc2)[C@H](CO)O1
-0.243

Identify the reported inhibition for the following entry. CO[C@@H]1CN(C)C(=O)c2ccc(NC(C)=O)cc2OC[C@@H](C)N(Cc2ccc(-c3ccccn3)cc2)C[C@H]1C
-0.357

Identify the reported inhibition for the following entry. CCCC(=O)Nc1ccc2c(c1)OC[C@H](C)N(CCC(F)(F)F)C[C@@H](C)[C@H](OC)CN(C)C2=O
-0.114

Identify the reported inhibition for the following entry. CC(C)NC(=O)N[C@H]1CC[C@@H](CC(=O)NCc2ccc(Oc3ccccc3)cc2)O[C@@H]1CO
-0.181

Identify the reported inhibition for the following entry. CO[C@@H](CN(C)S(=O)(=O)c1ccccc1)[C@@H](C)CN(Cc1ccccc1Cl)[C@H](C)CO
-0.567

Identify the reported inhibition for the following entry. CCCNC(=O)N1C[C@H](C)[C@H](OC)CN(C)C(=O)c2cc(NC(=O)CC)ccc2OC[C@H]1C
-0.059

Identify the reported inhibition for the following entry. O=C(NCC[C@@H]1CC[C@H](NC(=O)C2CC2)[C@@H](CO)O1)c1cc(Cl)cc(Cl)c1
0.406

Identify the reported inhibition for the following entry. C[C@@H]1CN([C@@H](C)CO)C(=O)c2cc(-c3ccccc3F)cnc2O[C@H]1CN(C)C(=O)C1CC1
0.564

Identify the reported inhibition for the following entry. O=C(C[C@H]1C[C@H]2c3cc(NS(=O)(=O)c4ccc(F)cc4)ccc3O[C@H]2[C@H](CO)O1)NCc1cc(F)ccc1F
-0.236

Identify the reported inhibition for the following entry. COc1ccccc1-c1cnc2c(c1)C(=O)N([C@@H](C)CO)C[C@H](C)[C@@H](CN(C)C(C)=O)O2
-1.01

Identify the reported inhibition for the following entry. O=C(Nc1ccc(C(F)(F)F)cc1)N[C@@H]1CC[C@H](CCNC(=O)c2ccccc2F)O[C@H]1CO
0.069

Identify the reported inhibition for the following entry. CO[C@H]1CN(C)C(=O)c2ccc(NS(=O)(=O)c3ccccc3C)cc2OC[C@H](C)NC[C@H]1C
-0.186

Identify the reported inhibition for the following entry. CC(=O)N(C)C[C@@H]1Oc2cc(-c3cncnc3)ccc2S(=O)(=O)N([C@@H](C)CO)C[C@H]1C
1.05

Identify the reported inhibition for the following entry. CNC[C@H]1Oc2cc(C#Cc3ccccc3)ccc2S(=O)(=O)N([C@@H](C)CO)C[C@@H]1C
4.92

Identify the reported inhibition for the following entry. COc1cccc(-c2cn(CC[C@H]3CC[C@H](NC(=O)CN(C)C)[C@H](CO)O3)nn2)c1
-0.376

Identify the reported inhibition for the following entry. O=C(Nc1cccc(Cl)c1)N[C@H]1CC[C@H](CCNC(=O)C2CCOCC2)O[C@H]1CO
0.082
